# target: T1, Sortilin SORTECDBAP_hB06-10 (human/tetraodon chimera)
# T1 construct: Shuffle construct: chimeric human/tetraodon Sortilin ECD with BAP tag
# T1 chain: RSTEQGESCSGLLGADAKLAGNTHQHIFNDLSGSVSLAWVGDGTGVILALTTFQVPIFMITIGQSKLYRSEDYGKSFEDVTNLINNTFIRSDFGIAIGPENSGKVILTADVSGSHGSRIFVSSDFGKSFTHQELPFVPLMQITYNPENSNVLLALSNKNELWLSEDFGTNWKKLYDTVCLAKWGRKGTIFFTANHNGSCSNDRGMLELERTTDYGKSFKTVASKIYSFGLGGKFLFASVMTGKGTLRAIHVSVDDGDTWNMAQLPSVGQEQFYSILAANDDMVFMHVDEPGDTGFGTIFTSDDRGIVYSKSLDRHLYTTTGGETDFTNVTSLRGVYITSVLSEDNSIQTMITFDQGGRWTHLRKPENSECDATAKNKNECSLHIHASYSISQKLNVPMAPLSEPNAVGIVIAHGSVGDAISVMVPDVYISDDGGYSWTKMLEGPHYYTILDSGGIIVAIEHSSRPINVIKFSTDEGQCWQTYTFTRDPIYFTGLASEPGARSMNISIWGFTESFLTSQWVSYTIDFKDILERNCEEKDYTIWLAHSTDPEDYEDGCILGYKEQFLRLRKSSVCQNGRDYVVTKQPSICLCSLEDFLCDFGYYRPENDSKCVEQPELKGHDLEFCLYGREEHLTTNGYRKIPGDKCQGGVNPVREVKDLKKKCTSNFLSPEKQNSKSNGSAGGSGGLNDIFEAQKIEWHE
# assay.notes: BLI (Octet384RED)
attribute.measured: EC50 (ng/mL)
Express the result in ng/mL but write the number alone.

Give EC50 for the following binder: Antibody 6003-900 (antibody, human IgG1, V domains shown, also called antibody 900; Sortilin human antibody 900) VH: EVQLVESGGGLVKPGGSLRLSCAASGFTFSSYSMNWVRQAPGKGLEWVSSISSSSSYIYYADSVKGRFTISRDNAKNSLYLQMNSLRAEDTAVYYCARRGSGSYDAFDIWGQGTMVTVSS VL: EIVLTQSPDFQSVTPKEKVTITCRASQSIGYSLHWYQQKPDQSPKLLIKYASQSFSGVPSRFSGSGSGTDFTLTINSLEAEDAAAYYCHQSSSLPLTFGGGTKVEIK
0.91
